- Tested on: BT-549
- test_summary: in vitro inhibition of breast (BT-549) cancer cell line
- applied_conditions: Homo sapiens
metric: GI50 (nM)
Provide only the numeric value, understood in nM.

Challenge: Which value of GI50 has been reported for CC(=O)c1cc2c(s1)C(=O)c1c(C(C)=O)csc1C2=O in the records?
Response given: 1700

Challenge: Which value of GI50 has been reported for CC(=O)OC(C)c1cc2c(s1)C(=O)c1c(C(C)OC(C)=O)csc1C2=O (centres undefined) in the records?
Response given: 2100

Challenge: Which value of GI50 has been reported for CC(O)c1cc2c(s1)C(=O)c1c(C(C)O)csc1C2=O (centres undefined) in the records?
Response given: 160

Challenge: Which value of GI50 has been reported for CC(=O)OC(C)c1cc2c(s1)C(=O)c1ccsc1C2=O (centres undefined) in the records?
Response given: 46

====

- Test system: SK-MEL-2
- test_summary: cytotoxic activity against […] cancer cell line
- Assay type: functional, cell-based
- applied_conditions: Homo sapiens
metric: IC50

Challenge: Which value of IC50 has been reported for O=C1c2ccsc2C(=O)c2sccc21 in the records?
Response given: 320 nM

====

- Tested on: SK-MEL-2
- test_summary: in vitro inhibition of melanoma (SK-MEL-2) cancer cell line
- Assay type: functional
- applied_conditions: Homo sapiens
Could you please mark 1.0 for values of GI50 below 200 nM and 0.0 for values at or above it?

Challenge: Is the reported GI50 for CC(=O)OC(C)c1cc2c(s1)C(=O)c1scc(C(C)OC(C)=O)c1C2=O (configuration not stated) strictly below 200 nM?
Response given: 1.0

Challenge: Is the reported GI50 for CC(O)c1cc2c(s1)C(=O)c1ccsc1C2=O (configuration not stated) strictly below 200 nM?
Response given: 1.0

Challenge: Is the reported GI50 for CC(O)c1cc2c(s1)C(=O)c1c(C(C)O)csc1C2=O (configuration not stated) strictly below 200 nM?
Response given: 1.0

Challenge: Is the reported GI50 for CC(=O)OC(C)c1cc2c(s1)C(=O)c1sccc1C2=O (configuration not stated) strictly below 200 nM?
Response given: 0.0

Challenge: Is the reported GI50 for CC(=O)OC(C)c1cc2c(s1)C(=O)c1ccsc1C2=O (configuration not stated) strictly below 200 nM?
Response given: 1.0

Challenge: Is the reported GI50 for CC(O)c1cc2c(s1)C(=O)c1sccc1C2=O (configuration not stated) strictly below 200 nM?
Response given: 1.0

Challenge: Is the reported GI50 for CC(=O)c1cc2c(s1)C(=O)c1sccc1C2=O strictly below 200 nM?
Response given: 1.0

Challenge: Is the reported GI50 for CC(=O)c1cc2c(s1)C(=O)c1c(C(C)=O)csc1C2=O strictly below 200 nM?
Response given: 0.0

Challenge: Is the reported GI50 for CC(=O)c1cc2c(s1)C(=O)c1scc(C(C)=O)c1C2=O strictly below 200 nM?
Response given: 1.0

Challenge: Is the reported GI50 for CC(=O)OC(C)c1cc2c(s1)C(=O)c1c(C(C)OC(C)=O)csc1C2=O (configuration not stated) strictly below 200 nM?
Response given: 0.0

====

I'd appreciate it if you could supply GI50 values for the items below.
- System: NCI-H23
- test_summary: in vitro inhibition of non-small-cell lung (NCI-H23) cancer cell line
- Format: functional
- applied_conditions: Homo sapiens
Provide only the numeric value, understood in µM.

Challenge: Which value of GI50 has been reported for CC(=O)OC(C)c1cc2c(s1)C(=O)c1sccc1C2=O (configuration not stated) in the records?
Response given: 0.22

Challenge: Which value of GI50 has been reported for CC(=O)OC(C)c1cc2c(s1)C(=O)c1ccsc1C2=O (configuration not stated) in the records?
Response given: 0.011

Challenge: Which value of GI50 has been reported for CC(=O)OC(C)c1cc2c(s1)C(=O)c1c(C(C)OC(C)=O)csc1C2=O (configuration not stated) in the records?
Response given: 0.87

Challenge: Which value of GI50 has been reported for CC(O)c1cc2c(s1)C(=O)c1sccc1C2=O (configuration not stated) in the records?
Response given: 0.016

Challenge: Which value of GI50 has been reported for CC(O)c1cc2c(s1)C(=O)c1scc(C(C)O)c1C2=O (configuration not stated) in the records?
Response given: 0.19

Challenge: Which value of GI50 has been reported for CC(O)c1cc2c(s1)C(=O)c1c(C(C)O)csc1C2=O (configuration not stated) in the records?
Response given: 0.034

Challenge: Which value of GI50 has been reported for CC(=O)c1cc2c(s1)C(=O)c1sccc1C2=O in the records?
Response given: 0.018

Challenge: Which value of GI50 has been reported for CC(=O)c1cc2c(s1)C(=O)c1ccsc1C2=O in the records?
Response given: 0.15

Challenge: Which value of GI50 has been reported for CC(=O)c1cc2c(s1)C(=O)c1scc(C(C)=O)c1C2=O in the records?
Response given: 0.29

Challenge: Which value of GI50 has been reported for CC(O)c1cc2c(s1)C(=O)c1ccsc1C2=O (configuration not stated) in the records?
Response given: 0.015

Challenge: Which value of GI50 has been reported for CC(=O)OC(C)c1cc2c(s1)C(=O)c1scc(C(C)OC(C)=O)c1C2=O (configuration not stated) in the records?
Response given: 0.16

Challenge: Which value of GI50 has been reported for CC(=O)c1cc2c(s1)C(=O)c1c(C(C)=O)csc1C2=O in the records?
Response given: 1.3

====

- System: UACC-62
- test_summary: in vitro inhibition of melanoma (UACC-62) cancer cell line
- Type: functional
- applied_conditions: Homo sapiens
metric: log10 GI50 (log10 of the value in nM)
A difference of one corresponds to tenfold GI50; all values are log10 with GI50 in nM.

Challenge: Which value of log10 GI50 has been reported for CC(O)c1cc2c(s1)C(=O)c1scc(C(C)O)c1C2=O (stereo unspecified) in the records?
Response given: 2.40

Challenge: Which value of log10 GI50 has been reported for CC(=O)c1cc2c(s1)C(=O)c1ccsc1C2=O in the records?
Response given: 2.32

Challenge: Which value of log10 GI50 has been reported for CC(O)c1cc2c(s1)C(=O)c1c(C(C)O)csc1C2=O (stereo unspecified) in the records?
Response given: 1.51

Challenge: Which value of log10 GI50 has been reported for CC(O)c1cc2c(s1)C(=O)c1ccsc1C2=O (stereo unspecified) in the records?
Response given: 1.20

Challenge: Which value of log10 GI50 has been reported for CC(=O)c1cc2c(s1)C(=O)c1scc(C(C)=O)c1C2=O in the records?
Response given: 2.36

Challenge: Which value of log10 GI50 has been reported for CC(=O)OC(C)c1cc2c(s1)C(=O)c1ccsc1C2=O (stereo unspecified) in the records?
Response given: 1.23

====

- Test system: L1210 (1565)
- test_summary: cytotoxic activity against leukemia (L-1210) cancer cell line
- Format: functional, cell-based
- applied_conditions: Mus musculus
metric: pIC50
Quick note: pIC50 means taking -log10 of the concentration in moles per liter.

Challenge: Which value of pIC50 has been reported for O=C1c2ccsc2C(=O)c2ccsc21 in the records?
Response given: 5.77

====

- Test system: Malme-3M
- test_summary: in vitro inhibition of melanoma (MALME-3M) cancer cell line
- Assay type: functional
- applied_conditions: Homo sapiens
metric: log10 of GI50 (log10 of the value in nM)
A difference of one corresponds to tenfold GI50; all values are log10 with GI50 in nM.

Challenge: Quick check: log10 of GI50 on Malme-3M, item CC(=O)OC(C)c1cc2c(s1)C(=O)c1sccc1C2=O (configuration not stated) ?
Response given: 2.08

Challenge: Quick check: log10 of GI50 on Malme-3M, item CC(O)c1cc2c(s1)C(=O)c1sccc1C2=O (configuration not stated) ?
Response given: 1.28

Challenge: Quick check: log10 of GI50 on Malme-3M, item CC(O)c1cc2c(s1)C(=O)c1c(C(C)O)csc1C2=O (configuration not stated) ?
Response given: 1.45

Challenge: Quick check: log10 of GI50 on Malme-3M, item CC(=O)c1cc2c(s1)C(=O)c1c(C(C)=O)csc1C2=O ?
Response given: 2.11

Challenge: Quick check: log10 of GI50 on Malme-3M, item CC(=O)OC(C)c1cc2c(s1)C(=O)c1scc(C(C)OC(C)=O)c1C2=O (configuration not stated) ?
Response given: 2.11

Challenge: Quick check: log10 of GI50 on Malme-3M, item CC(=O)OC(C)c1cc2c(s1)C(=O)c1c(C(C)OC(C)=O)csc1C2=O (configuration not stated) ?
Response given: 2.28

Challenge: Quick check: log10 of GI50 on Malme-3M, item CC(O)c1cc2c(s1)C(=O)c1scc(C(C)O)c1C2=O (configuration not stated) ?
Response given: 2.18

Challenge: Quick check: log10 of GI50 on Malme-3M, item CC(=O)c1cc2c(s1)C(=O)c1scc(C(C)=O)c1C2=O ?
Response given: 2.34

Challenge: Quick check: log10 of GI50 on Malme-3M, item CC(O)c1cc2c(s1)C(=O)c1ccsc1C2=O (configuration not stated) ?
Response given: 1.20

Challenge: Quick check: log10 of GI50 on Malme-3M, item CC(=O)c1cc2c(s1)C(=O)c1sccc1C2=O ?
Response given: 1.20

Challenge: Quick check: log10 of GI50 on Malme-3M, item CC(=O)c1cc2c(s1)C(=O)c1ccsc1C2=O ?
Response given: 2.07
